System: GM3
assay details: GM3 Elisa assay
Format: cell-based
run parameters: Table 3 (IC 50 Values); B16-FO cells; read-out: IC50_uM_Mean
Assignment: determine reported IC50 for the given molecules.

So what does the record say about IC50 for "COc1ccc(C(=O)CCCCCC(=O)N[C@H](CN2CCCC2)[C@H](O)c2ccc(OC)c(Cl)c2)cc1" ?
≤ 0.1 µM

Again, but for "COCCOc1ccc([C@@H](O)[C@@H](CN2CCCC2)NC(=O)CCCCC(=O)c2ccc(OC)cc2)cc1"
≤ 0.1 µM

Again, but for "COc1ccc(C(=O)CCCC(=O)N[C@H](CN2CCCC2)[C@H](O)c2ccc(OC)c(F)c2)cc1"
0.1 to 1 µM

Again, but for "O=C(Cc1ccc(OC(F)(F)F)cc1)N[C@H](CN1CCCC1)[C@H](O)c1ccc2c(c1)OC(F)(F)C(F)(F)O2"
3 to 10 µM

Again, but for "Cc1nccn1C[C@@H](NC(=O)CCCOc1ccc(F)cc1)[C@H](O)c1ccc2c(c1)OCCO2"
3 to 10 µM

Again, but for CCCCOc1ccc(C(O)[C@@H](CN2CC[C@@H](F)C2)NC(=O)CCCCCCCOC)cc1 (some centres unmarked)
0.1 to 1 µM

Again, but for "CCCCCCCC(=O)N[C@H](CN1CC(F)(F)C1)[C@H](O)c1ccc2c(c1)OCCO2"
3 to 10 µM

Again, but for "CCCCCCCC(=O)N[C@H](CN1CCCC1)[C@H](O)c1ccc(OC)c(C)c1"
≤ 0.1 µM

Again, but for "COc1ccc(OCCC(=O)N[C@@H](CN2CCCC2)[C@@H](O)c2ccc3c(c2)OCCO3)cc1"
3 to 10 µM

Again, but for "O=C(CCCCC(=O)c1ccc(F)cc1)N[C@H](CN1CC[C@H](O)C1)[C@H](O)c1ccc2c(c1)OCCO2"
1 to 3 µM

Again, but for "CCCCCCCC(=O)N[C@H](CN1CCC1)[C@H](O)c1ccc2c(c1)OCCO2"
1 to 3 µM

Again, but for "COc1ccc(C(=O)CCCCC(=O)N[C@H](CN2CCCC2)[C@H](O)c2ccc(OCCOc3ccccc3F)cc2)cc1"
≤ 0.1 µM

Again, but for "CCCCCCCC(=O)N[C@H](CN1CC[C@@H](F)C1)[C@H](O)c1ccc2c(c1)OCCO2"
0.1 to 1 µM

Again, but for "CCCCCCCC(=O)N[C@H](Cc1ncc[nH]1)[C@H](O)c1ccc2c(c1)OCCO2"
3 to 10 µM

Again, but for COCC1CCCN1C[C@@H](NC(=O)CCOc1ccc(OC)cc1)[C@H](O)c1ccc2c(c1)OCCO2 (some centres unmarked)
3 to 10 µM

Again, but for "COc1ccc(C(=O)CCCCCC(=O)N[C@H](CNCC(C)(C)C)[C@H](O)c2ccc3c(c2)OCCO3)cc1"
3 to 10 µM

Again, but for "O=C(CCCOn1nnc2ccccc21)N[C@H](CN1CCCC1)[C@H](O)c1ccc2c(c1)OCCO2"
0.1 to 1 µM

Again, but for "COc1ccc(C(=O)CCCCCC(=O)N[C@H](CN2CCCC2)[C@H](O)c2ccc(Cl)cc2)cc1"
≤ 0.1 µM

Again, but for "COc1ccc(C(=O)CCCCC(=O)N[C@H](CN2CCCC2)[C@H](O)c2ccc(OC)cc2OC)cc1"
0.1 to 1 µM

Again, but for "COc1ccc([C@@H](O)[C@@H](CN2CCCC2)NC(=O)Cc2ccc(OC(F)(F)F)cc2)cc1C"
≤ 0.1 µM

Again, but for "O=C(CCCCCC(=O)C1CC1)N[C@H](CN1CCCC1)[C@H](O)c1ccc2c(c1)OCCO2"
1 to 3 µM

Again, but for "CCCCCCCC(=O)N[C@H](CN1CCCC1)[C@H](O)c1ccc(CCOC)cc1"
0.1 to 1 µM

Again, but for "CCCCOc1ccc([C@@H](O)[C@@H](CN2CCCC2)NC(=O)CCOc2ccc(OC)cc2)cc1"
≤ 0.1 µM

Again, but for "COc1ccc(C(=O)CCCC(=O)N[C@H](CN2CC[C@@H](F)C2)[C@H](O)c2ccc(OCCCCF)cc2)cc1"
≤ 0.1 µM

Again, but for O=C(N[C@H](CN1CCCC1)[C@H](O)c1ccc2c(c1)OCCO2)C(CCc1ccc(F)cc1)C(F)(F)F (some centres unmarked)
0.1 to 1 µM

Again, but for "O=C(CCCC(=O)c1ccc(F)cc1)N[C@H](CN1C2CCC1CC2)[C@H](O)c1ccc2c(c1)OCCO2"
0.1 to 1 µM

Again, but for "O=C(NCc1ccc(Cl)cc1)N[C@H](CN1CC[C@H](O)C1)[C@H](O)c1ccc(OCCCCF)cc1"
≤ 0.1 µM

Again, but for "CCCCOc1ccc([C@@H](O)[C@@H](CN2CC[C@H](O)C2)NC(=O)CCCCC(=O)c2ccc(F)cc2)cc1"
0.1 to 1 µM

Again, but for "COc1ccc(C(=O)CCCC(=O)N[C@H](CN2CCCC2)[C@H](O)c2ccc3c(c2)OC(F)(F)O3)cc1"
1 to 3 µM
